These entries and their values trace back to patent US9303092B2.

System: mAb6H4
MEASUREMENT NOTES: RIA binding specificity, relative potency to METH
Parameters: species or system mouse
SETTINGS: RIA IC50 value for METH/RIA IC50 value for test ligand
QUANTITY KIND: Relative Potency to METH, mAb6H4
# respond with the number and nothing more

CN[C@H](C)Cc1ccccc1 [(−)METH] : 0.030

Please examine the following record next.
Determine its reported Relative Potency to METH, mAb6H4: CNC(C)Cc1ccc2c(c1)OCO2 (single isomer, unassigned; (-)) [(−)MDMA]
0.007

---

System: mAb4G9
MEASUREMENT NOTES: RIA binding specificity, relative potency to METH
Design: species or system mouse
SETTINGS: RIA IC50 value for METH/RIA IC50 value for test ligand
QUANTITY KIND: Relative Potency to METH, mAb4G9
Output: the number by itself.

CNC(C)Cc1ccc2c(c1)OCO2 (single isomer, unassigned; (-)) [(−)MDMA] : 0.011
CC(N)Cc1ccc2c(c1)OCO2 (single isomer, unassigned; (-)) [(−)MDA] : 0.002
CNC(C)Cc1ccc2c(c1)OCO2 (single isomer, unassigned; (+)) [(+)MDMA, (+)-3,4-methylenedioxymethamphetamine] : 0.29

Proceed to the following item.
Check the records and state Relative Potency to METH, mAb4G9 for CC(N)Cc1ccc2c(c1)OCO2 (single isomer, unassigned; (+)) [(+)MDA]
0.090

---

System: mAb6H8
MEASUREMENT NOTES: RIA binding specificity, relative potency to METH
Set-up: species or system mouse
SETTINGS: RIA IC50 value for METH/RIA IC50 value for test ligand
QUANTITY KIND: Relative Potency to METH, mAb6H8

CC(N)Cc1ccc2c(c1)OCO2 (single isomer, unassigned; (+)) [(+)MDA] : 0.024

Please indicate Relative Potency to METH, mAb6H8 recorded for NC[C@H](O)c1ccc(O)c(O)c1 [norepinepherine]
<0.001

Give the measured Relative Potency to METH, mAb6H8 for `NCCc1ccc(O)c(O)c1`
<0.001

Name the recorded Relative Potency to METH, mAb6H8 of the item CNC[C@H](O)c1ccc(O)c(O)c1 [epinephrine] in your answer.
<0.001

Quick one: give measured Relative Potency to METH, mAb6H8 for CN[C@H](C)[C@@H](O)c1ccccc1 [(+)ephedrine]
<0.001

Please give measured Relative Potency to METH, mAb6H8 of the following entry: CN[C@H](C)Cc1ccccc1 [(−)METH]
0.011

Read the entry `CNC[C@H](O)c1cccc(O)c1` and write its reported Relative Potency to METH, mAb6H8.
<0.001

State, in one line, measured Relative Potency to METH, mAb6H8 of CC(N)C(O)c1ccccc1 (single isomer, unassigned; (+)) [(+)phenylpropanolamine]
<0.001

---

System: mAb4G9
MEASUREMENT NOTES: RIA binding specificity, relative potency to METH
Set-up: species or system mouse
SETTINGS: RIA IC50 value for METH/RIA IC50 value for test ligand
QUANTITY KIND: Relative Potency to METH, mAb4G9

NCCc1ccccc1 : 0.001
CN[C@H](C)Cc1ccccc1 [(−)METH] : 0.102
NCCc1ccc(O)cc1 : <0.001

Item `NCCc1ccc(O)c(O)c1` : provide Relative Potency to METH, mAb4G9
<0.001

Find the measured Relative Potency to METH, mAb4G9 of `NCCc1c[nH]c2ccc(O)cc12` and report it.
<0.001

Please list Relative Potency to METH, mAb4G9 recorded for the molecule `CNC[C@H](O)c1cccc(O)c1`
<0.001

For the molecule CNC(C)Cc1ccc(O)cc1 (stereo not shown) , report Relative Potency to METH, mAb4G9.
0.106
